Tested on: Rattus norvegicus
Assay: Antiinflammatory activity in po dosed CD1 rat assessed as inhibition of carrageenan-induced paw edema administered 1 hr prior to carrageenan challenge measured after 3 hrs
Item-by-item account of ED40
result-type: ED40 (mg/kg)

[[record]]
molecular_string = "O=C(OCCN1CCN(c2ccccc2)CC1)c1ccccc1Nc1ccnc2cc(C(F)(F)F)ccc12"
unit_string = "mg/kg"
recorded_value = 40

[[record]]
molecular_string = "O=C(OCCN1CCN(c2cccc(C(F)(F)F)c2)CC1)c1ccccc1Nc1ccnc2cc(C(F)(F)F)ccc12"
unit_string = "mg/kg"
recorded_value = 40

[[record]]
molecular_string = "O=C(OCCN1CCN(c2ccccc2)CC1)c1ccccc1Nc1ccnc2cc(OC(F)(F)F)ccc12"
unit_string = "mg/kg"
recorded_value = 40


###

Tested on: Rattus norvegicus
Test: Antiinflammatory activity in po dosed CD1 rat assessed as inhibition of carrageenan-induced paw edema administered 1 hr prior to carrageenan challenge measured after 3 hrs
result-type: ED40 (mg/kg)

[[record]]
molecular_string = "O=C(OCCN1CCN(c2cccc(OC(F)(F)F)c2)CC1)c1ccccc1Nc1ccnc2cc(Cl)ccc12"
censor_symbol = "="
recorded_value = 50

[[record]]
molecular_string = "O=C(OCCCN1CCN(c2ccccc2)CC1)c1ccccc1Nc1ccnc2cc(Cl)ccc12"
censor_symbol = "="
recorded_value = 50

[[record]]
molecular_string = "O=C(OCCN1CCN(c2cccc(C(F)(F)F)c2)CC1)c1ccccc1Nc1ccnc2cc(OC(F)(F)F)ccc12"
censor_symbol = "="
recorded_value = 43

[[record]]
molecular_string = "O=C(OCCN1CCN(c2cccc(SC(F)(F)F)c2)CC1)c1ccccc1Nc1ccnc2cc(Cl)ccc12"
censor_symbol = "="
recorded_value = 30

[[record]]
molecular_string = "O=C(OCCN1CCN(c2cccc(SC(F)(F)F)c2)CC1)c1ccccc1Nc1ccnc2cc(SC(F)(F)F)ccc12"
censor_symbol = "="
recorded_value = 180

[[record]]
molecular_string = "O=C(OCCN1CCN(c2cccc(OC(F)(F)F)c2)CC1)c1ccccc1Nc1ccnc2cc(C(F)(F)F)ccc12"
censor_symbol = "="
recorded_value = 50

[[record]]
molecular_string = "O=C(OCCN1CCN(c2cccc(SC(F)(F)F)c2)CC1)c1ccccc1Nc1ccnc2c(C(F)(F)F)cccc12"
censor_symbol = ">"
recorded_value = 100

[[record]]
molecular_string = "O=C(OCCN1CCN(c2ccc(Cl)cc2)CC1)c1ccccc1Nc1ccnc2cc(Cl)ccc12"
censor_symbol = "="
recorded_value = 100

[[record]]
molecular_string = "O=C(OCCN1CCN(c2ccccc2)CC1)c1ccccc1Nc1ccnc2c(C(F)(F)F)cccc12"
censor_symbol = "="
recorded_value = 64

[[record]]
molecular_string = "O=C(OCCN1CCN(c2cccc(Cl)c2)CC1)c1ccccc1Nc1ccnc2cc(C(F)(F)F)ccc12"
censor_symbol = "="
recorded_value = 30

[[record]]
molecular_string = "Cc1ccc(C)c(N2CCN(CCOC(=O)c3ccccc3Nc3ccnc4cc(Cl)ccc34)CC2)c1"
censor_symbol = "="
recorded_value = 120

[[record]]
molecular_string = "O=C(OCCN1CCN(c2ccccc2)CC1)c1ccccc1Nc1cccc(OC(F)(F)F)c1"
censor_symbol = "="
recorded_value = 150

